Tested on: HCT-15 colon
Assay: NCI tumour cell line growth inhibition, 48 h
quantity.measured: TGI

compound: NC(CCCC(N)P(=O)(O)c1ccccc1)P(=O)(O)c1ccccc1 (stereo not drawn)
val: > 261 µM

compound: OCc1ccc(-c2ccc(-c3ccc(CO)o3)[se]2)o1
val: > 100 µM

compound: CCc1cccc(C)c1NC(=O)c1sc2nc3c(cc2c1N)CCCCC3
val: > 100 µM

---

System: IGROV1 ovarian
Experiment: NCI tumour cell line growth inhibition, 48 h
Quick reference for TGI among some molecules

molecule: COC(=O)CCc1c[nH]c2ccc(N(CCCl)CCCl)cc12
TGI: > 57.7 µM
//
molecule: COC(=O)/C(=C\Nc1cccc(C)n1)S(=O)(=O)c1ccc(C)cc1
TGI: > 100 µM
//
molecule: O=C(CC(c1ccccc1)c1c(O)c2ccccc2oc1=O)c1ccccc1 (stereo not given)
TGI: > 100 µM
//
molecule: CCOC(=O)C1(C/C=C(/C)Cl)CCCC1=O (stereo not given)
TGI: > 100 µM
//
molecule: CCCN1C(=O)CC(C)N(Cc2ccccc2Cl)C1=S (stereo not given)
TGI: > 100 µM
//
molecule: O=C(c1ccco1)N1CCCN(C(=O)c2ccco2)C1=S
TGI: > 100 µM
//
molecule: C=C(c1ccc2nc(NC(=O)OC)[nH]c2c1)c1cccs1
TGI: > 100 µM
//
molecule: CN(C)CCCNC(=O)c1cc(NC(=O)c2cc(NC(=O)CCc3c[nH]c4ccccc34)cn2C)cn1C
TGI: > 100 µM
//
molecule: C[C@H](CCC(=O)NCCS(=O)(=O)O)[C@H]1CC[C@H]2[C@@H]3CC[C@@H]4C[C@H](O)CC[C@]4(C)[C@H]3CC[C@]12C
TGI: > 100 µM
//
molecule: COc1ccc(Nc2nc3ccc(C(F)(F)F)cc3nc2-c2ccccc2)cc1OC
TGI: > 100 µM
//
molecule: Cc1nn(-c2nc3ccccc3[nH]2)c(N)c1-c1ccc(Cl)cc1
TGI: > 100 µM
//
molecule: CCCCCCCCOC1C(O)C(O)C(O)C(O)C12CO2 (stereo not given)
TGI: > 100 µM
//
molecule: CN(CCn1cnc2c1c(=O)n(C)c(=O)n2C)C1CCCCC1
TGI: > 100 µM
//
molecule: CCCCc1ccc(Nc2nc3c(ncn3C3CC(O)C(CN=[N+]=[N-])O3)c(=O)[nH]2)cc1 (stereo not given)
TGI: > 100 µM
//
molecule: CC(C)CC(NC(=O)c1cccc(O)c1O)C(=O)NCc1cc(CNC(=O)C(CC(C)C)NC(=O)c2cccc(O)c2O)cc(CNC(=O)C(CC(C)C)NC(=O)c2cccc(O)c2O)c1 (stereo not given)
TGI: 27.1 µM
//
molecule: C=C1C(=O)O[C@@H]2C[C@@H](C)[C@@H]3C=CC(=O)[C@@]3(C)[C@@H](OC(=O)CC(=O)O[C@H]3[C@@H]4C(=C)C(=O)O[C@@H]4C[C@@H](C)[C@@H]4C=CC(=O)[C@]43C)[C@H]12
TGI: 0.595 µM
//
molecule: O=c1nc(/C=C/c2ccccc2Cl)cc2n1CCN2CCO
TGI: > 100 µM
//
molecule: O=C(CP(=O)(O)O)NC(CC(=O)OCc1ccccc1)C(=O)OCc1ccccc1 (stereo not given)
TGI: > 100 µM
//
molecule: CC(=O)[CH-]C(C)=O.CC(=O)[CH-]C(C)=O.[CH2-]CCC.[CH2-]CCC.[Sn+4]
TGI: 2.66 µM
//
molecule: N#CCc1n[nH]c(Cc2ccccc2)n1
TGI: > 100 µM
//
molecule: COC(=O)CCC(=O)NC1=C(Nc2ccc(OC)cc2)C(=O)c2ccccc2C1=O
TGI: 26 µM
//
molecule: CC(O)c1cc2c(s1)C(=O)c1sccc1C2=O (stereo not given)
TGI: 0.725 µM
//
molecule: CCN(CC)CC1CCCCN1CC(=O)N1c2ccccc2NC(=O)CC1C (stereo not given)
TGI: > 100 µM
//
molecule: CC(=O)[O][Ga]([Cl])[O]C(C)=O
TGI: > 100 µM
//
molecule: O=c1c(Oc2ccc(F)cc2F)cc2cnc(NC3CCOCC3)nc2n1CCCO
TGI: > 25 µM
//
molecule: CO[C@H]1/C=C/O[C@@]2(C)Oc3c(C)c(O)c4c(c3C2=O)C(=O)C(/C=N/N(c2ccccc2)c2ccccc2)=C(NC(=O)/C(C)=C\C=C\[C@H](C)[C@H](O)[C@@H](C)[C@@H](O)[C@@H](C)[C@H](OC(C)=O)[C@@H]1C)C4=O
TGI: 4.23 µM
//
molecule: [Cl-].[O-]/N=C(\c1ccccc1)c1ccccn1.[O-]/N=C(\c1ccccc1)c1ccccn1.[O-]/N=C(\c1ccccc1)c1ccccn1.[Sm+3]
TGI: 79.6 µM
//
molecule: COC(=O)CCC(=O)NC1=C(NCc2ccccc2)C(=O)c2ccccc2C1=O
TGI: 53.7 µM
//
molecule: COc1cccc(-c2nc3sccn3c2-c2ccnc(NCCCNS(=O)(=O)c3cccc(F)c3)c2)c1
TGI: 9.77 µM
//
molecule: Cc1ccsc1/C=N/Nc1nc2ccccc2s1
TGI: 23.5 µM
